Experimental Target: α-glucosidase from Saccharomyces cerevisiae
Run Description: α-Glucosidase inhibition assay (chromogenic method, p-nitrophenyl-α-D-glucopyranoside)
Protocol Conditions: pH 6.9, 37 °C; read-out: α Glucosidase Inhibition (IC50 ± S.E.M)
For each record, write down the corresponding pIC50.
The scale used: pIC50 is minus the common logarithm of the concentration in molar units.

So for COC(=O)/C=C/[C@H]1C(C)=CC(=O)[C@H](OC)C1(C)C (relative stereo) , the logged pIC50 turned out to be 3.53

So for CO[C@H]1C(=O)C=C(C)[C@H](/C=C/C(C)=O)C1(C)C (relative stereo) , the logged pIC50 turned out to be 3.51

So for CCOC(=O)/C=C/[C@H]1C(C)=CC(=O)[C@H](OC)C1(C)C (relative stereo) , the logged pIC50 turned out to be 3.48

----------
For each record, write down the corresponding pIC50.
The scale used: pIC50 is minus the common logarithm of the concentration in molar units.

Known value: jack-bean urease (Canavalia ensiformis, UniProt P07374) pIC50 of the molecule CCOC(=O)/C=C/[C@H]1C(C)=CC(=O)[C@H](OC)C1(C)C (relative stereo) equals 4.77

Known value: jack-bean urease (Canavalia ensiformis, UniProt P07374) pIC50 of the molecule COC(=O)/C=C/[C@H]1C(C)=CC(=O)[C@H](OC)C1(C)C (relative stereo) equals 4.86

Known value: jack-bean urease (Canavalia ensiformis, UniProt P07374) pIC50 of the molecule CO[C@H]1C(=O)C=C(C)[C@H](/C=C/C(C)=O)C1(C)C (relative stereo) equals 4.98
